Entries and their IC50
# Target or system: His-PKC-theta (Homo sapiens)
# Construct: His; purchased Invitrogen
# Sequence (Q04759 whole entry): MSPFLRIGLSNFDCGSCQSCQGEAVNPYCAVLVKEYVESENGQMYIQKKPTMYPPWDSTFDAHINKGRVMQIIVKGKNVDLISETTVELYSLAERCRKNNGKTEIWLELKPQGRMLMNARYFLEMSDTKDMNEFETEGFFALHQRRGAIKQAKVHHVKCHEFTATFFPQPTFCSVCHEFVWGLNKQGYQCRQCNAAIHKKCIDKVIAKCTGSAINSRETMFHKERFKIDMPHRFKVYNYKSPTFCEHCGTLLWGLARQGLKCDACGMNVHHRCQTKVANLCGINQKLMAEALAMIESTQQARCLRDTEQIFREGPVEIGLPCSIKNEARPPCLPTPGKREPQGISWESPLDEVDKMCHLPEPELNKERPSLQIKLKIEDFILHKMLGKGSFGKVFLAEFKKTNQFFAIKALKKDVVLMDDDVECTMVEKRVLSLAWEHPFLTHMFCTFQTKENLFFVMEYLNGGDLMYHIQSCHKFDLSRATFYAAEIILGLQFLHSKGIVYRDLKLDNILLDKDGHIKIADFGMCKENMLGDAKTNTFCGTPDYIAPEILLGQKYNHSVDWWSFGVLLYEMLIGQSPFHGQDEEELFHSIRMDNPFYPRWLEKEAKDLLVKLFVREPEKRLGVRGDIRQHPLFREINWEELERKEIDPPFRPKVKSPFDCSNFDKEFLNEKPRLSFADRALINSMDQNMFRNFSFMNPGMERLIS
# Procedure details: PKC-theta Assay (384-well time resolved fluorescence, IMAP TR-FRET)
# Type: biochemical
# Study conditions: read-out: Act. Level (IC50 in the PKC-theta Assay)

Example results:
# Molecule, Result
rows = [
    ("COc1cccc(CCNc2ncc(C#N)c(N[C@H]3CC[C@@H](O)CC3)n2)n1 [Cmpd 327]", "2000 to 10000 nM"),
    ("CC1(C)C[C@H](Nc2nc(NCCc3cncnc3)ncc2C#N)CC[C@@H]1O [Cmpd 277]", "2000 to 10000 nM"),
]

Read the next record carefully.
-- ask Answer with the recorded IC50 of CC1(C)C[C@H](Nc2nc(NCc3cncnc3-c3ccc(F)cc3)ncc2C(F)(F)F)CC[C@@H]1O [Cmpd 44] only.
-- reply < 100 nM
